test system: Septoria tritici; test: Test E: wheat leaf blotch, test suspension sprayed on wheat seedlings, disease rating; type: in vivo; conditions: 200 ppm test suspension;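 note: 200 ppm unless marked * meaning 40 ppm or ** meaning 10 ppm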
RESULT TYPE: Test E disease control rating (%)

COMPOUND	RESULT TYPE	NUMERIC RESULT
COc1nccc(-c2c(-c3ccc(F)cc3)nn3c2CCCC3)n1 [Compound 105]	Test E disease control rating	100
c1cc(-c2c(-c3ccsc3)nn3c2CCCC3)nc(NC2CC2)n1 [compound 61]	Test E disease control rating	98
OC1(CNc2nccc(-c3c(-c4ccc(F)cc4)nn4c3CCCC4)n2)CC1 [compound 44]	Test E disease control rating	100
CN(C)c1nccc(-c2c(-c3ccc(F)cc3)nn3c2CCCC3)n1 [compound 14]	Test E disease control rating	99
OCCNc1nccc(-c2c(-c3ccc(F)cc3)nn3c2CCCC3)n1 [compound 25]	Test E disease control rating	97

---

system: Pythium aphanidermatum; experiment: Test L: bluegrass pythium blight, test suspension sprayed on bluegrass seedlings, disease rating; assay type: in vivo; settings: 40 ppm test suspension (*);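 note: 200 ppm unless marked * meaning 40 ppm or ** meaning 10 ppm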
Marks after values point to notes of the source that are not given here.
RESULT TYPE: Test L disease control rating

MOLECULE	RESULT TYPE	RESULT
Cc1cc(-c2nn3c(c2-c2ccnc(NC[Si](C)(C)C)n2)CCCC3)ccc1F	Test L disease control rating	68* %
COCC(C)Nc1nccc(-c2c(-c3ccccc3)nn3c2CCCC3)n1 (centres unmarked)	Test L disease control rating	100* %
C[C@@H](CO)Nc1nccc(-c2c(-c3ccccc3)nn3c2CCCC3)n1	Test L disease control rating	100* %
CC(C)C(CO)Nc1nccc(-c2c(-c3ccc(F)cc3)nn3c2CCCC3)n1 (centres unmarked)	Test L disease control rating	93* %
CN(N)c1nccc(-c2c(-c3ccc(F)cc3)nn3c2CCCC3)n1	Test L disease control rating	98* %
Cc1ccc(CNc2nccc(-c3c(-c4ccc(F)cc4)nn4c3CCCC4)n2)o1	Test L disease control rating	0* %
CC(CN(C)C)Nc1nccc(-c2c(-c3ccc(F)cc3)nn3c2CCCC3)n1 (centres unmarked)	Test L disease control rating	0* %
CC(C)Nc1nccc(-c2c(-c3ccc(F)cc3)nn3c2CNCC3)n1.Cl	Test L disease control rating	99* %
CCCC(CO)Nc1nccc(-c2c(-c3ccc(F)cc3)nn3c2CCCC3)n1 (centres unmarked)	Test L disease control rating	98* %
Cc1cc(-c2nn3c(c2-c2ccnc(NC4CC4)n2)CCCC3)ccc1F	Test L disease control rating	100* %
CC(C)Nc1nccc(-c2c(-c3ccc(F)cc3)nn3c2CCCN3)n1	Test L disease control rating	100* %
CC(=O)N1CCn2nc(-c3ccc(F)cc3)c(-c3ccnc(NC(C)C)n3)c2C1	Test L disease control rating	100* %
C=CCN1CNCc2c(-c3ccnc(NC4CC4)n3)c(-c3ccc(F)cc3)nn21	Test L disease control rating	99* %
C[C@H](CO)Nc1nccc(-c2c(-c3ccc(F)cc3)nn3c2CCCC3)n1	Test L disease control rating	100* %
CC(C)Nc1nccc(-c2c(-c3ccc(F)cc3)nn3c2COCC3)n1.Cl	Test L disease control rating	100* %
C[Si](C)(C)CNc1nccc(-c2c(-c3ccccc3)nn3c2CCCC3)n1	Test L disease control rating	0* %
CC(CN1C(=O)c2ccccc2C1=O)Nc1nccc(-c2c(-c3ccc(F)cc3)nn3c2CCCC3)n1 (centres unmarked)	Test L disease control rating	97* %

---

system: Colletotrichum orbiculare; experiment: Test F: cucumber Colletotrichum anthracnose, test suspension sprayed on cucumber seedlings, disease rating; format: in vivo; settings: 200 ppm test suspension
Quick reference: Test F disease control rating of the listed items.

COMPOUND	Test F disease control rating, %
COCC(C)Nc1nccc(-c2c(-c3ccc(F)cc3F)nn3c2CCC3)n1 (centres unmarked)	0
CCCC(C)Nc1nccc(-c2c(-c3ccc(F)cc3)nn3c2CCCC3)n1 (centres unmarked)	8
NCCNc1nccc(-c2c(-c3ccc(F)cc3)nn3c2CCCC3)n1	0
CCC(C)Nc1nccc(-c2c(-c3ccc(F)cc3)nn3c2CCCC3)n1 (centres unmarked) [compound 20]	88
CN(C)c1nccc(-c2c(-c3ccc(F)cc3)nn3c2CCCC3)n1	0
CNc1nccc(-c2c(-c3ccc(F)cc3)nn3c2CCC3)n1	17
COCC(C)Nc1nccc(-c2c(-c3ccc(C)cc3)nn3c2CCC3)n1 (centres unmarked)	0
Cc1ccc(CNc2nccc(-c3c(-c4ccc(F)cc4)nn4c3CCCC4)n2)o1	0
Fc1ccc(-c2nn3c(c2-c2ccnc(NOCC4CCC4)n2)CCCC3)cc1	0
CC(C)C(CO)Nc1nccc(-c2c(-c3ccc(F)cc3)nn3c2CCCC3)n1 (centres unmarked)	0
CN(N)c1nccc(-c2c(-c3ccc(F)cc3)nn3c2CCCC3)n1	91
CC(=O)N1CCn2nc(-c3ccc(F)cc3)c(-c3ccnc(NC(C)C)n3)c2C1	0
COCC(C)Nc1nccc(-c2c(-c3ccc(F)cc3)nn3c2CCC3)n1 (centres unmarked)	98
CCCC(CO)Nc1nccc(-c2c(-c3ccc(F)cc3)nn3c2CCCC3)n1 (centres unmarked)	0

---

system: Puccinia recondite f sp. tritici; test: Test B: wheat leaf rust, test suspension sprayed on wheat seedlings, disease rating; type: in vivo; details: 200 ppm test suspension;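 note: 200 ppm unless marked * meaning 40 ppm or ** meaning 10 ppm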
Measured Test B disease control rating accompanies every entry in the list below.

COMPOUND	Test B disease control rating, %
CC(CO)Nc1nccc(-c2c(-c3ccc(F)cc3)nn3c2Cc2ccccc2C3)n1 (stereo not drawn)	90
CC(C)Nc1nccc(-c2c(-c3ccccc3F)nn3c2CCCC3)n1	91
CC(C)Nc1nccc(-c2c(-c3ccsc3)nn3c2CCCC3)n1	92

---

test system: Colletotrichum orbiculare; experiment: Test F: cucumber Colletotrichum anthracnose, test suspension sprayed on cucumber seedlings, disease rating; type: in vivo; conditions: 200 ppm test suspension
RESULT TYPE: Test F disease control rating (%)

COMPOUND	TARGET DESC	NUMERIC RESULT
C=CCNc1nccc(-c2c(-c3ccc(F)cc3)nn3c2CCCC3)n1 [compound 15]	Colletotrichum orbiculare	17
COCC(C)Nc1nccc(-c2c(-c3ccc(F)cc3)nn3c2CCCC3)n1 (centres unmarked) [compound 1]	Colletotrichum orbiculare	96
Fc1ccc(-c2nn3c(c2-c2ccnc(NC4CC4)n2)CCC3)cc1 [compound 92]	Colletotrichum orbiculare	80
CCC(C)Nc1nccc(-c2c(-c3ccc(F)cc3)nn3c2CCCC3)n1 (centres unmarked) [compound 19]	Colletotrichum orbiculare	66
C=CCNc1nccc(-c2c(-c3ccc(F)cc3)nn3c2CCC3)n1 [compound 95]	Colletotrichum orbiculare	21

---

system: Septoria tritici; assay: Test E: wheat leaf blotch, test suspension sprayed on wheat seedlings, disease rating; assay type: in vivo; conditions: 200 ppm test suspension;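 note: 200 ppm unless marked * meaning 40 ppm or ** meaning 10 ppm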

COMPOUND	UNITS OF MEASURE	Test E disease control rating
CC(CS(=O)(=O)[O-])Nc1nccc(-c2c(-c3ccc(F)cc3)nn3c2CCCC3)n1.[Na+] (stereo not drawn)	%	0
COCC(C)Nc1nccc(-c2c(-c3ccccc3F)nn3c2CCC3)n1 (stereo not drawn)	%	62
Fc1cccc(-c2nn3c(c2-c2ccnc(NC4CC4)n2)CCC3)c1	%	100
Cc1cc(-c2nn3c(c2-c2ccnc(NC4CC4)n2)COCC3)ccc1F	%	87
Fc1ccc(Nc2nccc(-c3c(-c4ccc(F)cc4)nn4c3CCCC4)n2)cc1	%	98
CCC(CO)Nc1nccc(-c2c(-c3ccc(F)cc3)nn3c2CCCC3)n1 (stereo not drawn)	%	98
C[C@H](CO)Nc1nccc(-c2c(-c3ccc(F)cc3)nn3c2CCCC3)n1	%	94
CC(COC(=O)c1cccnc1)Nc1nccc(-c2c(-c3ccc(F)cc3)nn3c2CCCC3)n1 (stereo not drawn)	%	93
CC(CO)Nc1nccc(-c2c(-c3ccsc3)nn3c2COCC3)n1 (stereo not drawn)	%	54
CC(C)Nc1nccc(-c2c(-c3ccccc3F)nn3c2CCC3)n1	%	61
CC(C)Nc1nccc(-c2c(-c3ccc(F)cc3)nn3c2CSCC3)n1	%	17
CCCNc1nccc(-c2c(-c3cccc(C)c3)nn3c2CCCC3)n1	%	97

---

test system: Puccinia recondite f sp. tritici; assay: Test B: wheat leaf rust, test suspension sprayed on wheat seedlings, disease rating; assay type: in vivo; details: 200 ppm test suspension;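 note: 200 ppm unless marked * meaning 40 ppm or ** meaning 10 ppm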
RESULT TYPE: Test B disease control rating (%)

COMPOUND	TARGET DESC	NUMERIC RESULT
Cc1ccccc1-c1nn2c(c1-c1ccnc(NC(C)C)n1)CCCC2 [compound 45]	Puccinia recondite f sp. tritici	89
C[C@H](CO)Nc1nccc(-c2c(-c3ccc(F)cc3)nn3c2CCCC3)n1 [compound 47]	Puccinia recondite f sp. tritici	91
OCC(CO)Nc1nccc(-c2c(-c3ccc(F)cc3)nn3c2CCCC3)n1 [compound 63]	Puccinia recondite f sp. tritici	91

---

tested on: Septoria tritici; assay: Test E: wheat leaf blotch, test suspension sprayed on wheat seedlings, disease rating; format: in vivo; conditions: 200 ppm test suspension;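 note: 200 ppm unless marked * meaning 40 ppm or ** meaning 10 ppm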
Quick reference: Test E disease control rating of the listed items.

MOLECULE	Test E disease control rating [%]
Clc1ccc(-c2nn3c(c2-c2ccnc(NC4CC4)n2)CCCC3)cc1	94
OCCCNc1nccc(-c2c(-c3ccc(F)cc3)nn3c2CCCC3)n1	68
c1cc(-c2c(-c3ccsc3)nn3c2CCCC3)nc(NC2CC2)n1 [compound 180]	100
CC(CO)Nc1nccc(-c2c(-c3ccccc3)nn3c2COCC3)n1 (stereo not drawn)	80
CCCNc1nccc(-c2c(-c3ccccc3)nn3c2CCCC3)n1	100
Cc1cc(-c2nn3c(c2-c2ccnc(NC(C)C)n2)COCC3)ccc1F	95
C[C@H](CO)Nc1nccc(-c2c(-c3ccc(F)cc3)nn3c2CCOC3)n1	91
Fc1ccc(-c2nn3c(c2-c2ccnc(NCC4CCCO4)n2)CCCC3)cc1 (stereo not drawn)	94
CC(C)Nc1nccc(-c2c(-c3ccc(F)cc3F)nn3c2COCC3)n1	88
CC(=O)OCC(C)Nc1nccc(-c2c(-c3ccc(F)cc3)nn3c2CCCC3)n1 (stereo not drawn)	93
CC1CN1c1nccc(-c2c(-c3ccc(F)cc3)nn3c2CCCC3)n1 (stereo not drawn)	100
Fc1ccc(-c2nn3c(c2-c2ccnc(Oc4ccc(-n5cccc5)cc4)n2)CCCC3)cc1	72
